# Assay protocol: Intrinsic clearance in mouse liver microsomes
# Assay type: ADME
# Stated conditions: read-out: CLH
Measure: microsomal CLint (µL/min/mg)
State just the number; it will be interpreted in µL/min/mg.

Returns the measured microsomal CLint for the input molecule. Input: CCCc1cc(-c2nc(-c3ccc(NS(C)(=O)=O)cc3)cs2)ccn1
28.8

---

# MIC80 per record follows
# System: Mycobacterium tuberculosis
# Assay protocol: Antimicrobial activity against clinical isolate Mycobacterium tuberculosis ATCC35811 assessed as growth inhibition after 7 days by turbidometry
# Format: functional
# Stated conditions: ATCC35811, 168 h
# unit: µg/mL | format: bare number

Answered examples (3):
• CCCc1cc(-c2nc(-c3cccc(OC)c3)cs2)ccn1 = 0.5
• NNC(=O)c1ccncc1 [ISONIAZID] = 0.06
• CCCc1cc(-c2nc(-c3ccc(OCCN4CCOCC4)cc3)cs2)ccn1 = 1

Request the reported MIC80 associated with CCCc1cc(-c2nc(-c3ccc(OCC4CC4)cc3)cs2)ccn1
1

Please give the measured MIC80 for this compound: CO[C@H]1/C=C/O[C@@]2(C)Oc3c(C)c(O)c4c(O)c(c(/C=N/N5CCN(C)CC5)c(O)c4c3C2=O)NC(=O)/C(C)=C\C=C\[C@H](C)[C@H](O)[C@@H](C)[C@@H](O)[C@@H](C)[C@H](OC(C)=O)[C@@H]1C [RIFAMPIN]
0.003

Quick one: MIC80 of CCCc1cc(-c2nc(-c3ccc(NS(C)(=O)=O)cc3)cs2)ccn1 ?
0.5

---

# System: Mycobacterium tuberculosis
# Assay protocol: Antimicrobial activity against clinical isolate Mycobacterium tuberculosis H37Rv ATCC 27294 assessed as growth inhibition after 7 days by turbidometry
# Format: functional
# Stated conditions: H37Rv ATCC 27294, 168 h
Note to self: MIC80 under 0.2 µg/mL means Y, ties and anything higher get N.

Look over these answered cases.
* CCCc1cc(-c2nc(-c3ccc(OCCN4CCOCC4)cc3)cs2)ccn1 | N
* CO[C@H]1/C=C/O[C@@]2(C)Oc3c(C)c(O)c4c(O)c(c(/C=N/N5CCN(C)CC5)c(O)c4c3C2=O)NC(=O)/C(C)=C\C=C\[C@H](C)[C@H](O)[C@@H](C)[C@@H](O)[C@@H](C)[C@H](OC(C)=O)[C@@H]1C | Y
* CCCc1cc(-c2nc(-c3ccc(NS(C)(=O)=O)cc3)cs2)ccn1 | N
* CCCc1cc(-c2nc(-c3ccc(OCC4CC4)cc3)cs2)ccn1 | N
* NNC(=O)c1ccncc1 | Y

Here is the next item to consider.
API: query returns whether the compound falls strictly under 0.2 µg/mL in MIC80. Query: CCCc1cc(-c2nc(-c3cccc(OC)c3)cs2)ccn1
N

From: ChEMBL document CHEMBL3351699
